biological target: Recombinant human HDAC2 (Homo sapiens, UniProt Q92769); experiment: HDAC-Glo I/II assay, HDAC2; details: Class I HDAC; compounds reduced by TCEP prior to assay
Sequence (Q92769 whole entry): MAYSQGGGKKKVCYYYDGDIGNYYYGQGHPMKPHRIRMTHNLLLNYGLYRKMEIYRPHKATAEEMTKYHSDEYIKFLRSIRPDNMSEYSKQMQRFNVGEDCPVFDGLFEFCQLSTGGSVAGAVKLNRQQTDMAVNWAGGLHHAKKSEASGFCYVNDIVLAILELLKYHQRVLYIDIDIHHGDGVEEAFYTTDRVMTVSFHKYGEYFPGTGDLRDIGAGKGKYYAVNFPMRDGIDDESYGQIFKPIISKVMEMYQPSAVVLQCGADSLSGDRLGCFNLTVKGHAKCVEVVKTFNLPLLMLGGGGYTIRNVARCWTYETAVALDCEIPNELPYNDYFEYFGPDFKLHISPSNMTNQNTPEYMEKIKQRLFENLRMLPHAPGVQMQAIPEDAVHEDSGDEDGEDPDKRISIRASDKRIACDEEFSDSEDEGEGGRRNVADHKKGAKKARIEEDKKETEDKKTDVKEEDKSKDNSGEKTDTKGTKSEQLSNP
Give IC50 for every item shown.

Below, each entry is followed by its recorded IC50 result.
# query: IC50 of entry COC(=O)[C@H]1CSSCC/C=C/C(O)CC(=O)N[C@H](CCSC)C(=O)N1 (stereo partly shown) [TDF3m]
94.2 nM

Moving on to CCC(C)[C@H]1NC(=O)[C@H]2CSSCC/C=C/[C@H](CC(=O)N[C@H](CCSC)C(=O)N2)OC(=O)C[C@@H]1O (stereo partly shown) [TDP-A, Thailandepsin A, reference compound]
8.1 nM

Moving on to CC(C)[C@H](NC(=O)CC(O)/C=C/CCS)C(=O)O (stereo partly shown) [TDF6]
111 nM

Here is the next item to consider.
# query: IC50 of entry CCCC[C@H]1NC(=O)C[C@H]2/C=C/CCSSC[C@@H](NC1=O)C(=O)N[C@H](C(C)CC)[C@@H](O)CC(=O)O2 (stereo partly shown) [TDP-B, Thailandepsin B, reference compound]
25.6 nM
